target: human muscarinic receptors Hm3 (Homo sapiens (Human)); assay: biochemical; assay type: binding; conditions: read-out: BINDING TO RECEPTOR M3 (IC50 nM)
Structures can show the parent of a compound that is named as a salt.
Field: IC50. Provide a value for each of the compounds that follow.
Numbers only, in nM.

CC1(C(=O)O[C@H]2C[N+]3(CCCOc4ccccc4)CCC2CC3)c2ccccc2-c2ccccc21 [Example 116] | 23
O=C(O[C@H]1C[N+]2(CCCOc3ccccc3)CCC1CC2)C(O)(c1ccccc1)c1ccco1 (stereo partly shown) [Example 20] | 6.8
O=C(O[C@H]1C[N+]2(CCCOc3ccc(F)cc3)CCC1CC2)C(O)(c1cccs1)c1cccs1 [Example 53] | 5.6
O=C(O[C@H]1C[N+]2(CCCc3cccs3)CCC1CC2)C(O)(c1cccs1)c1cccs1 [Example 78] | 5
O=C(O[C@H]1C[N+]2(CCCOc3ccccc3)CCC1CC2)C(O)(c1ccccc1)c1cccs1 (stereo partly shown) [Example 8] | 4.8

For every item below, please supply its IC50.
1. O=C(O[C@H]1C[N+]2(CCCOc3ccccc3)CCC1CC2)C(c1ccccc1)c1ccccc1 [Example 1]
2. O=C(O[C@H]1C[N+]2(CCCOc3ccccc3O)CCC1CC2)C(O)(c1cccs1)c1cccs1 [Example 71, trifluoroacetate]

Output:
1. 31
2. 8.2

====

target: human muscarinic receptors Hm3 (Homo sapiens (Human), UniProt P20309); assay: biochemical; type: binding; settings: read-out: BINDING TO RECEPTOR M3 (IC50 nM)
Where a name gives a salt, the structure may show the parent alone.
Experimental Endpoint: IC50
Quote the value and follow it with the unit of measurement.

For every item below, please supply its IC50.
1. O=C(O[C@H]1C[N+]2(CCCn3cccc3)CCC1CC2)C(O)(c1cccs1)c1cccs1 [Example 74, trifluoroacetate]
2. O=C(O[C@H]1C[N+]2(CCCOc3ccccc3)CCC1CC2)C(O)(c1ccsc1)c1ccsc1
3. CC(C(=O)O[C@H]1C[N+]2(CCCOc3ccccc3)CCC1CC2)(c1ccccc1)c1ccccc1
4. CC1(C(=O)O[C@H]2C[N+]3(CC=Cc4ccccc4)CCC2CC3)c2ccccc2-c2ccccc21
5. O=C(O[C@H]1C[N+]2(CCOc3ccccc3)CCC1CC2)C(O)(c1ccccc1)c1ccco1 (stereo partly drawn)
6. O=C(O[C@H]1C[N+]2(CCOCc3ccccc3)CCC1CC2)C(O)(c1cccs1)c1cccs1 [Example 84, trifluoroacetate]
7. O=C(O[C@H]1C[N+]2(CCCc3cccs3)CCC1CC2)C1(O)c2ccccc2Oc2ccccc21

Output:
1. 16 nM
2. 5.4 nM
3. 22 nM
4. 14 nM
5. 6.6 nM
6. 9.9 nM
7. 19 nM

For every item below, please supply its IC50.
1. O=C(O[C@H]1C[N+]2(CCCOc3ccccc3)CCC1CC2)C(c1cccs1)c1cccs1
2. O=C(O[C@H]1C[N+]2(CCCCc3ccccc3)CCC1CC2)C(O)(c1cccs1)c1cccs1

Output:
1: 13 nM; 2: 3.8 nM

====

biological target: human muscarinic receptors Hm3 (Homo sapiens (Human)); experiment: biochemical; type: binding
Experimental Endpoint: IC50 (nM)
Answers are plain numbers, in nM.

Task: Query the reported IC50 for human muscarinic receptors Hm3 (Homo sapiens (Human)); item: O=C(O[C@H]1C[N+]2(CC=Cc3ccccc3)CCC1CC2)C(O)(c1ccccc1)c1ccco1 (mixture of isomers) [Example 17]
Output: 14
